Species on record: Rattus norvegicus
Test Name: Agonist activity at nAChR in Sprague-Dawley rat striatal slices assessed as induction of [3H]-dopamine release
Assay Context: Sprangue-Dawley
Activity calls are given as the source filed them. No cut-off for these calls is given here.
Recorded Metric: Activity

Compound: CN1CCC[C@H]1c1ccc[n+](CCCCCCNCC2CCc3ccc(O)cc3O2)c1 (mixture of isomers)
Recorded Metric: Activity
Obs Value: inactive
//
Compound: CN1CCC[C@H]1c1ccc[n+](CCCCCNCC2CCc3ccc(O)cc3O2)c1 (mixture of isomers)
Recorded Metric: Activity
Obs Value: inactive
//
Compound: CCCCCC[n+]1cccc([C@@H]2CCCN2C)c1
Recorded Metric: Activity
Obs Value: inactive

Recorded values, source ChEMBL document CHEMBL3611999.
